Target: rocR (Pseudomonas aeruginosa)
Construct: made in house; host or cells: Escherichia coli BL21(DE3)
Experiment: rocR-mediated CDN hydrolysis monitored by HPLC
Format: biochemical, P. aeruginosa
Conditions: 100 nM rocR, 37° C.; Table 3
Readings of k2 for the listed compounds

{"compound": "Nc1nc2c([C@@H]3O[C@@H]4COP(=O)(O)O[C@H]5[C@@H](O)[C@H](n6cnc7c(=O)[nH]c(N)nc76)O[C@@H]5COP(=O)(O)O[C@H]4[C@H]3O)scc2c(=O)[nH]1", "target": "rocR (Pseudomonas aeruginosa)", "units text": "s⁻¹", "k2": 0.033}
{"compound": "Nc1nc2c(ncn2[C@@H]2O[C@@H]3COP(=O)(O)O[C@H]4[C@@H](O)[C@H](n5cnc6c(=O)[nH]c(N)nc65)O[C@@H]4COP(=O)(O)O[C@H]3[C@H]2O)c(=O)[nH]1 [c-di-GMP, reference compound]", "target": "rocR (Pseudomonas aeruginosa)", "units text": "s⁻¹", "k2": 1.15}
{"compound": "Nc1nc2c([C@@H]3O[C@@H]4COP(=O)(O)O[C@H]5[C@@H](O)[C@H](n6cnc7c(=O)[nH]c(N)nc76)O[C@@H]5COP(=O)(O)O[C@H]4[C@H]3O)snc2c(=O)[nH]1", "target": "rocR (Pseudomonas aeruginosa)", "units text": "s⁻¹", "k2": 0.096}
{"compound": "Nc1nc2c([C@@H]3O[C@@H]4COP(=O)(O)O[C@H]5[C@@H](O)[C@H](c6snc7c(=O)[nH]c(N)nc67)O[C@@H]5COP(=O)(O)O[C@H]4[C@H]3O)snc2c(=O)[nH]1", "target": "rocR (Pseudomonas aeruginosa)", "units text": "s⁻¹", "k2": 0.099}

====

In this section, each of the molecules is paired with its reported k1.
Target: rocR (Pseudomonas aeruginosa, UniProt Q9HX69)
Construct: made in house; host or cells: Escherichia coli BL21(DE3)
Sequence (Q9HX69 whole entry): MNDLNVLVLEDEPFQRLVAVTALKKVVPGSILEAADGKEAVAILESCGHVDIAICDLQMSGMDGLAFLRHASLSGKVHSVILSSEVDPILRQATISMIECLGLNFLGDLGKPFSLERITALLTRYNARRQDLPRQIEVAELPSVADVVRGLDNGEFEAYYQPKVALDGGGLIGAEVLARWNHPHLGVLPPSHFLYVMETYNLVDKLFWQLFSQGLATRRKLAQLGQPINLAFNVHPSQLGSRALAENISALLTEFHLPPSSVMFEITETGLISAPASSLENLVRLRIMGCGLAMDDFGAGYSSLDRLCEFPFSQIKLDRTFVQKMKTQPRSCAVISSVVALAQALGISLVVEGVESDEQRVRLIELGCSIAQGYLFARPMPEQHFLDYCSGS
Assay: rocR-mediated CDN hydrolysis monitored by HPLC
Format: biochemical, P. aeruginosa
Settings: 100 nM rocR, 37° C.; enzyme/substrate association
recorded endpoint: k1 (M⁻¹ s⁻¹)

{"molecule": "Nc1nc2c([C@@H]3O[C@@H]4COP(=O)(O)O[C@H]5[C@@H](O)[C@H](c6snc7c(=O)[nH]c(N)nc67)O[C@@H]5COP(=O)(O)O[C@H]4[C@H]3O)snc2c(=O)[nH]1", "target": "rocR (Pseudomonas aeruginosa, UniProt Q9HX69)", "recorded endpoint": "k1", "result number": 43000}
{"molecule": "Nc1nc2c([C@@H]3O[C@@H]4COP(=O)(O)O[C@H]5[C@@H](O)[C@H](n6cnc7c(=O)[nH]c(N)nc76)O[C@@H]5COP(=O)(O)O[C@H]4[C@H]3O)snc2c(=O)[nH]1", "target": "rocR (Pseudomonas aeruginosa, UniProt Q9HX69)", "recorded endpoint": "k1", "result number": "1.85e+06"}
{"molecule": "Nc1nc2c([C@@H]3O[C@@H]4COP(=O)(O)O[C@H]5[C@@H](O)[C@H](n6cnc7c(=O)[nH]c(N)nc76)O[C@@H]5COP(=O)(O)O[C@H]4[C@H]3O)scc2c(=O)[nH]1", "target": "rocR (Pseudomonas aeruginosa, UniProt Q9HX69)", "recorded endpoint": "k1", "result number": 21000}
{"molecule": "Nc1nc2c(ncn2[C@@H]2O[C@@H]3COP(=O)(O)O[C@H]4[C@@H](O)[C@H](n5cnc6c(=O)[nH]c(N)nc65)O[C@@H]4COP(=O)(O)O[C@H]3[C@H]2O)c(=O)[nH]1 [c-di-GMP, reference compound]", "target": "rocR (Pseudomonas aeruginosa, UniProt Q9HX69)", "recorded endpoint": "k1", "result number": "3.96e+06"}

====

Target: rocR (Pseudomonas aeruginosa, UniProt Q9HX69)
Construct: made in house; host or cells: Escherichia coli BL21(DE3)
Test: rocR-mediated CDN hydrolysis monitored by HPLC
Assay type: biochemical, P. aeruginosa
Details: 100 nM rocR, 37° C.; Table 3
Each item that follows carries a reported k3.

{"molecule": "Nc1nc2c([C@@H]3O[C@@H]4COP(=O)(O)O[C@H]5[C@@H](O)[C@H](n6cnc7c(=O)[nH]c(N)nc76)O[C@@H]5COP(=O)(O)O[C@H]4[C@H]3O)scc2c(=O)[nH]1 [c-G^thGMP]", "target": "rocR (Pseudomonas aeruginosa, UniProt Q9HX69)", "k3": "5 ± 0.57 s⁻¹"}
{"molecule": "Nc1nc2c(ncn2[C@@H]2O[C@@H]3COP(=O)(O)O[C@H]4[C@@H](O)[C@H](n5cnc6c(=O)[nH]c(N)nc65)O[C@@H]4COP(=O)(O)O[C@H]3[C@H]2O)c(=O)[nH]1 [c-di-GMP, reference compound]", "target": "rocR (Pseudomonas aeruginosa, UniProt Q9HX69)", "k3": "0.76 ± 0.03 s⁻¹"}
{"molecule": "Nc1nc2c([C@@H]3O[C@@H]4COP(=O)(O)O[C@H]5[C@@H](O)[C@H](c6snc7c(=O)[nH]c(N)nc67)O[C@@H]5COP(=O)(O)O[C@H]4[C@H]3O)snc2c(=O)[nH]1 [c-di-^tzGMP]", "target": "rocR (Pseudomonas aeruginosa, UniProt Q9HX69)", "k3": "0.83 ± 0.55 s⁻¹"}
{"molecule": "Nc1nc2c([C@@H]3O[C@@H]4COP(=O)(O)O[C@H]5[C@@H](O)[C@H](n6cnc7c(=O)[nH]c(N)nc76)O[C@@H]5COP(=O)(O)O[C@H]4[C@H]3O)snc2c(=O)[nH]1 [c-G^tzGMP]", "target": "rocR (Pseudomonas aeruginosa, UniProt Q9HX69)", "k3": "3.07 ± 0.25 s⁻¹"}

Source: patent US11702442B2
